experiment: chemical genetic growth profiling, strain panel (AID 1159580);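 also: tested at 20 µM; growth read once vehicle control cultures reached saturation at 30 °C; 1 = growth at the plate median or of vehicle wells; lower values mean less growth of the strain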; details: S. cerevisiae deletion strains, growth OD, locus YNR049C, strain mso1, stronger effect = lower value
The whole screen tested about 5,500 compounds, of which about 2,000 (36%) were called active. About 18% were inconclusive and are not listed. The list shows a part of the results.
QUANTITY: normalized growth
Form rule: numeric answer, no unit written next to it.

Example entries begin here.
Fill in the blank: the reported normalized growth of `CC1(C)O[C@H]2CC(=O)OC[C@]23[C@H]2CC[C@@]4(C)[C@H](c5ccoc5)OC(=O)[C@H]5O[C@]54[C@]2(C)C(=O)C[C@@H]13` is ____.
0.956

Fill in the blank: the reported normalized growth of Cc1ccccc1OCC(O)CO (stereo not drawn) is ____.
0.955

Fill in the blank: the reported normalized growth of `COc1cc(O)c2c(=O)c(O)c(-c3ccc(O)c(O)c3)oc2c1` is ____.
0.947

Let's switch to this molecule now.
Fill in the blank: the reported normalized growth of CC1(C)C2CC(=O)[C@]3(C)C(CC[C@@]4(C)[C@H](c5ccoc5)OC(=O)C5OC543)[C@@]2(C)[C@@H](O)C[C@H]1O (stereo partly drawn) is ____.
0.997
